molecular target: Cytochrome P450 11B2, mitochondrial (Homo sapiens); assay: Inhibition of human CYP11B2 expressed in human NCI-H295 cells incubated for 48 hrs by radioimmuno assay; assay type: ADME, cell-based
OBSERVED_PROPERTY: IC50 (nM)
One number for each entry, in nM.

Query block: Given the entry COc1ccc2c(c1)CC(C)C(c1cncc3ccccc13)=C2 (stereo unspecified) , what IC50 was observed with Cytochrome P450 11B2, mitochondrial (Homo sapiens)?
Result block: 0.5

###

assay: Metabolic stability in human liver microsomes assessed as half life measured upto 60 mins by LC/MS-MS analysis; format: ADME, Microsome
OBSERVED_PROPERTY: half-life (h)
Answers are plain numbers, in h.

Query block: Data request, read-out half-life, for Cc1nnc2n1-c1ccc(-c3cncc([C@](C)(O)C(F)(F)F)c3)cc1CC2
Result block: 2

###

Target: UniProt:P19099
Sequence (P19099 whole entry): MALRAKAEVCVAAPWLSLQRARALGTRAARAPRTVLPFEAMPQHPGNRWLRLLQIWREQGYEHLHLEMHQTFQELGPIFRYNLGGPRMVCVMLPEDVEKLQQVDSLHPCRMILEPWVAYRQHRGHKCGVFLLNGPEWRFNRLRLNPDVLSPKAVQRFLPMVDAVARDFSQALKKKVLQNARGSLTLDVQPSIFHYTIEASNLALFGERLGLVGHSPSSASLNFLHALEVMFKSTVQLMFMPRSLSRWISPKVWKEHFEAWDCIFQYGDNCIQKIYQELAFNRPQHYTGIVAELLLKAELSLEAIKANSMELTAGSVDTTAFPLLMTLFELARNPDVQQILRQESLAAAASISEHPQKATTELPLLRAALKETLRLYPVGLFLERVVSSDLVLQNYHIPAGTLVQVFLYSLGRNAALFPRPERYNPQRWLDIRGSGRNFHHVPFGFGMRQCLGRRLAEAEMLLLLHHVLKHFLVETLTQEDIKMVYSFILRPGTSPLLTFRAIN
Test: Inhibition of human CYP11B2 stably expressed in G-402 cells
Assay type: ADME, cell-based
Would you mind telling me the reported pIC50 of each entry?
Give bare numbers, as −log10 of the molar value.

> print(dat)
                                smiles.text  observed.property  recorded.result
1  Cn1nccc1-c1cncc(N2CCc3cc(Cl)ccc3C2=O)c1Cl              pIC50             8.21

Look up pIC50 for the entries below, preserving their order.
1. CCn1cc(C(=O)N2CC3(C2)CN(c2cncc(N4C(=O)c5ccc(Cl)cc5C4(C)C)c2)C3)cn1
2. Cn1cc(C(=O)N2CC(Oc3cncc(N4C(=O)c5ccc(Cl)cc5C4(C)C)c3)C2)cn1

Result block:
[9.64, 9.30]

###

Would you kindly list IC50 for each of these compounds?
target: Cytochrome P450 11B2, mitochondrial (Homo sapiens, UniProt P19099); experiment: Inhibition of CYP11B2 (unknown origin); format: ADME
Numbers only, in nM.

> print(dat)
                                   compound  recorded.result
1  CC1(C)CN(Cc2ccccc2)c2ccccc2C1N1C=NCC1CO (stereo not given)                6
2  O=C(CC1CCc2c(-c3ccc(C(F)(F)F)cc3F)cncc21)N1CCCCC1 (stereo not given)                2

Batch request: IC50 for each of the following compounds.
1. CC(C)CCC1(c2ccccc2Cl)C(=O)N(Cc2ccc(F)cc2)Cc2cncn21 (stereo not given)
2. CC1(C)C(=O)Nc2cccc(Cl)c2C1n1cncc1CO (stereo not given)
3. CC1(c2ccccc2)CCc2cncc(-c3ccc(C(F)(F)F)cc3F)c21 (stereo not given)
4. CCCC1(c2ccc(C#N)cc2OC)C(=O)N(Cc2ccccc2)Cc2cncn21 (stereo not given)
5. CN(C)C(=O)CC1CCCc2c(-c3ccc(C(F)(F)F)cc3F)cncc21 (stereo not given)
6. CNC(=O)Cn1cc(NC(=O)CN2CCN(c3cncc(-c4ccc(Cl)cc4)c3)CC2)cn1
7. Cc1nnc2n1-c1ccc(-c3cncc([C@](C)(O)C(F)(F)F)c3)cc1CC2

Result block:
4
7
33
4
32
3
64

###

Assign IC50 to each entry below.
biological target: Cytochrome P450 11B2, mitochondrial (Homo sapiens, UniProt P19099); experiment: Inhibition of CYP11B2 (unknown origin); type: ADME
Give bare numbers, in µM.

> print(dat)
                                smiles.text                              assay.system  observed.property  result.units  recorded.result
1  CC(C)NC(=O)CN1CCN(c2cncc(-c3ccc4c(c3)CCO4)n2)C1  Cytochrome P450 11B2, mitochondrial (Homo sapiens, UniProt P19099)               IC50            µM           0.0022

Shift focus to the following entry.
Query block: For N#Cc1ccc(-c2cncc3c2CCCC3)cc1 , what is its reported IC50?
Result block: 0.04

###

biological target: CYP11B1 (Homo sapiens, UniProt P15538); assay: Inhibition of CYP11B1 (unknown origin); assay type: ADME
Sequence (P15538 whole entry): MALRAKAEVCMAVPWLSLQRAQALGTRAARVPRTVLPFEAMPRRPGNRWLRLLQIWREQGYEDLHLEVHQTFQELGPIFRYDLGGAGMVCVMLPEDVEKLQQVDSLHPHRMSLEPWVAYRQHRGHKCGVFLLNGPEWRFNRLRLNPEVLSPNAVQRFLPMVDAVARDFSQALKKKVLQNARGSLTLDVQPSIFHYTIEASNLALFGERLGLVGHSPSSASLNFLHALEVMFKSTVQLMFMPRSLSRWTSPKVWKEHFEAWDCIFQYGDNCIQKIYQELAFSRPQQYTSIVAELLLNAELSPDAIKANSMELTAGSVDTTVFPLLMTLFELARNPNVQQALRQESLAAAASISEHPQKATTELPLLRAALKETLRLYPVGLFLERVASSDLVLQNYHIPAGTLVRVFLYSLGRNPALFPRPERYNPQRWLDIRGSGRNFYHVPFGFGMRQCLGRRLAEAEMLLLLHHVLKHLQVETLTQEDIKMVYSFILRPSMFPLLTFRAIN
OBSERVED_PROPERTY: pIC50
Numbers only, as −log10 of the molar value.

> print(dat)
                           compound  recorded.result
1  COc1cc2c(cc1-c1cccnc1)CCC(=O)N2C             5.96

Query block: Please report the recorded pIC50 for Cc1c(F)cncc1C1COc2c(cccc2C(N)=O)O1 (configuration not stated) .
Result block: 5.59

###

molecular target: Cytochrome P450 11B2, mitochondrial (Homo sapiens); experiment: Inhibition of CYP11B2 (unknown origin); type: ADME
Can you tell me IC50 for the items I'm about to list?

> print(dat)
                                   compound  observed.property  recorded.result
1  N#Cc1cccc2c1OCC(c1cncc(CN3CCOC3=O)c1)O2 (stereo not drawn)               IC50          < 10 nM
2  N#Cc1cccc2c1OCC(c1cncc(C(O)C3CCOCC3)c1)O2 (stereo not drawn)               IC50          < 10 nM

Attention now turns to another entry.
Query block: State the recorded IC50 for this entry: CS(=O)(=O)COc1cncc(C2COc3c(C#N)cccc3O2)c1 (stereo not drawn)
Result block: < 10 nM

Source: ChEMBL document CHEMBL5550167
